Kindly supply the reported pKd values for the records listed here.
# measurement-target: T1, cyno activated protein C (cyno (monkey))
# T1 construct: also called cyno aPC; cyno APC
# experiment: SPR (Biacore), 1:1 binding model
Give bare numbers, as −log10 of the molar value.

binder: Hu1573-1 (antibody, V domains shown, Humanized IgG, human gamma 1 / kappa constant regions by vectors pCP-hCg1 and pCP-hck; also called H1573VH.1 + H1573Vk.2C) VH: EVQLVESGGGLVQPGGSLRLSCAASGFTFSNYYLNWVRQAPGKGLEWVGDIRLKSNNYEKHYAESVKGRFTISRDDSKNSLYLQMNSLKTEDTAVYYCAREGDYFDYWGQGTTVTVSS VL: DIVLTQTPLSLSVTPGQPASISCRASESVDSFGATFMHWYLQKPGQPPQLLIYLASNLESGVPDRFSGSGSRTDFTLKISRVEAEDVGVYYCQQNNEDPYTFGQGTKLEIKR
pKd: 7.78
--
binder: Hu1573-14 (antibody, V domains shown, Humanized IgG, human gamma 1 / kappa constant regions by vectors pCP-hCg1 and pCP-hck; also called H1573VH.1E + H1573Vk.2B) VH: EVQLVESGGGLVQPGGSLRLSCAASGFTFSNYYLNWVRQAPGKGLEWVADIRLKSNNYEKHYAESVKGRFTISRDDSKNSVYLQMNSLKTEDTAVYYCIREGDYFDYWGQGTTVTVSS VL: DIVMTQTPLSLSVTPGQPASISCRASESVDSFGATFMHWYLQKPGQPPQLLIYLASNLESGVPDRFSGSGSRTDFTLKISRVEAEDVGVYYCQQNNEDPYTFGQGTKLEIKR
pKd: 7.75

Kindly review the next binder as well.
Note down pKd recorded for Hu1573-12 (antibody, V domains shown, Humanized IgG, human gamma 1 / kappa constant regions by vectors pCP-hCg1 and pCP-hck; also called H1573VH.1E + H1573Vk.2) VH: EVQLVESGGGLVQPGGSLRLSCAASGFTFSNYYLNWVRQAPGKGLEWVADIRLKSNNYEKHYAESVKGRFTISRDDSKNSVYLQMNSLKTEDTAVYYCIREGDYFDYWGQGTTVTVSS VL: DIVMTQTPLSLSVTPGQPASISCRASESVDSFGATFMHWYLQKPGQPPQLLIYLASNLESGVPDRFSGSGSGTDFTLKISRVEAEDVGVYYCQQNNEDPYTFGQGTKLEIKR
7.79
